Source: ChEMBL document CHEMBL1124947

# System: Mus musculus
# assay_text: Trypanocidal Activity at I.C.E. value 0.67 when administered subcutaneously.
# Type: functional
Recorded CD50 for the following compounds
Report the value in mg/kg with no unit label.

Here's what some known entries look like.
smiles_structure	result_type	test_value
Br.Cc1cccc2n1cc(COc1ccc(/C=N/NC3=NCCCN3)cc1)[n+]2C.[Br-]	CD50	0.4
C[n+]1c(COc2ccc(/C=N/NC(=N)N)cc2)cn2cc(C(F)(F)F)ccc21.Cc1ccc(S(=O)(=O)O)cc1.Cc1ccc(S(=O)(=O)[O-])cc1	CD50	6.6
Br.CCNC(=N)N/N=C/c1ccc(OCc2cn3cc(C)ccc3[n+]2C)cc1.[Br-]	CD50	0.4
Br.CCS(=O)(=O)c1ccc2n(c1)cc(-c1ccc(/C=N/NC(=N)N)cc1)[n+]2C.[Br-]	CD50	0.8

What measured CD50 goes with Br.C[n+]1c(-c2ccc(/C=N/NC3=NCCCN3)cc2)cn2ccccc21.[Br-] ?
0.1

Would you mind doing Br.Cn1c(COc2ccc(/C=N/NC(=N)N)cc2)[n+](C)c2ccccc21.[Br-] as well?
0.4

Would you mind doing Br.Cc1ccn2cc(-c3ccc(/C=N/NC4=NCCCN4)cc3)[n+](C)c2c1.[Br-] as well?
0.1

Would you mind doing Br.CCNC(=N)N/N=C/c1ccc(-c2cn3cc(C)ccc3[n+]2C)cc1.[Br-] as well?
0.4

* * *

# Test system: Trypanosoma brucei rhodesiense
# assay_text: In Vitro measurement of inhibition of thymidine uptake in cell culture of Trypanosoma rhodesiense
# Type: functional
# measurement_conditions: read-out: ID50 (the source's name)
Friendly reminder: IC50 below 2 µg/mL is Y, at or above is N.

Worked set:
compound	tested_target	discrete_label
Br.C[n+]1c(-c2ccc(/C=N/NC3=NCCN3)cc2)cn2ccsc21.[Br-]	Trypanosoma brucei rhodesiense	Y
C[n+]1cscc1COc1ccc(/C=N/NC(=N)N2CCCC2)cc1.Cc1ccc(S(=O)(=O)O)cc1.Cc1ccc(S(=O)(=O)[O-])cc1	Trypanosoma brucei rhodesiense	N
C[n+]1c(-c2ccc(/C=N/NC3N=NC(=S)N3N)cc2)cn2ccsc21.[Br-] (stereo not given)	Trypanosoma brucei rhodesiense	N
CNC(=N)N/N=C/c1ccc(-c2cn3ccsc3[n+]2C)cc1.I.[I-]	Trypanosoma brucei rhodesiense	Y

Read the next record carefully.
Item Cc1ccc2n(c1)cc(-c1ccc(/C=N/Nc3nc[nH]n3)cc1)[n+]2C.[Br-] : IC50 beneath 2 µg/mL, strictly?
N

* * *

# System: Trypanosoma brucei rhodesiense
# assay_text: In Vitro measurement of inhibition of thymidine uptake in cell culture of Trypanosoma rhodesiense.
# Format: functional
# measurement_conditions: read-out: ID50 (the source's name)
Friendly reminder: IC50 below 0.6 µg/mL is MET, at or above is NOT MET.

Worked set:
smiles_structure	discrete_label
Br.C[n+]1c(-c2ccc(/C=N/NC(=N)NCCN3CCOCC3)cc2)cn2ccccc21.[Br-]	NOT MET
Cc1ccc(S(=O)(=O)O)cc1.Cc1ccc(S(=O)(=O)[O-])cc1.Cc1ccn2cc(-c3ccc(/C=N/NC(=N)N)cc3)[n+](C)c2c1	NOT MET
Br.CNC(=N)N/N=C/c1ccc(-c2cn3ccccc3[n+]2C)cc1.[Br-]	MET

Item Br.CCNC(=N)N/N=C/c1ccc(-c2cn3ccccc3[n+]2C)cc1.[Br-] : IC50 beneath 0.6 µg/mL, strictly?
MET

Would you mind doing Br.CCCNC(=N)N/N=C/c1ccc(-c2cn3ccc(C)cc3[n+]2C)cc1.[Br-] as well?
NOT MET

Would you mind doing Cc1ccc(S(=O)(=O)O)cc1.Cc1ccc(S(=O)(=O)[O-])cc1.Cc1ccc2n(c1)cc(-c1ccc(/C=N/NC(=N)N)cc1)[n+]2C as well?
MET

Would you mind doing Br.CCN(CC)C(=N)N/N=C/c1ccc(-c2cn3ccccc3[n+]2C)cc1.[Br-] as well?
NOT MET

Would you mind doing Cc1ccc(S(=O)(=O)O)cc1.Cc1ccc(S(=O)(=O)[O-])cc1.Cc1ccc2n(c1)cc(-c1ccc(/C=N/NC(=N)N3CCSC3)cc1)[n+]2C as well?
NOT MET

Would you mind doing Br.C[n+]1c(-c2ccc(/C=N/NC3=NCCN3)cc2)cn2ccccc21.[Br-] as well?
NOT MET
